- Tested on: HT-29
- Experiment Summary: NCI tumour cell line growth inhibition, 48 h
Calls of active or inactive are those of the source. Cut-off read from the data, not from the text of the source: active = GI50 up to about 1.1 µM and inactive = higher.
Can you answer with just one of these options? active, inactive

Record excerpt, results attached:
O=C(/C=C/c1ccccc1)CC(=O)CCC(=O)Nc1ccc(Cl)cc1; inactive
C/C=C/C(O)P(=O)(OC)OC (stereo unspecified); active
C[C@@]12[Se]c3ccccc3[C@]1(C)[Se]c1ccccc12; inactive
O=C(Nc1nc2ncn(CCO)c2c(=S)[nH]1)c1ccccc1; inactive
COc1ccc(C(=O)O/N=C2\CCCC\C2=C/c2ccccc2)cc1; inactive

Please find the next compound below.
## Input Call for entry `c1ccc(OC2=NC3=S(S2)SC(Oc2ccccc2)=N3)cc1` :
## Output inactive

====

- System: A549
- Experiment Summary: NCI tumour cell line growth inhibition, 48 h
Activity calls are given as the source filed them. Cut-off read from the data, not from the text of the source: active = GI50 up to about 1.1 µM and inactive = higher.
Can you answer with just one of these options? 1.0 (active), 0.0 (inactive)

Record excerpt, results attached:
C=CCCCCCCCCCOC1C=CC(OC(C)=O)C(COC(C)=O)O1 (stereo not given); 0.0
Cc1ccn2c(=O)cc(-c3ccccc3)nc2c1; 0.0
C/C=C(/C)C(=O)O[C@H]1[C@H](O)CC(c2ccc3c(c2O)C(=O)C2=C(O)C4(OC)C(=O)C(C(N)=O)=C(O)[C@H](CC(=O)c5ccccc5O)C4CC2[C@@]3(C)OC)O[C@@H]1C (stereo not given in full); 1.0
CC1CC(C)C(C#N)N(C)c2ccccc21 (stereo not given); 0.0
O=C(NCCC1CNc2ccccc21)OCc1ccccc1 (stereo not given); 0.0

## Input Call for entry COc1cc(C(C)c2cc3c(cc2OCCN)OCO3)cc(OC)c1OC (stereo not given) :
## Output 0.0

## Input Call for entry `C/C(=N\NC(=S)N1CCCCC1)c1cccc(C)n1` :
## Output 1.0

## Input Call for entry `O=C1C(N2CCN(CCOCCO)CC2)=C(Cl)C(=O)c2ncccc21` :
## Output 0.0

## Input Call for entry `Cc1cc(C)c2c(=N)c3ccccc3n(CCCCCCCCn3c4ccccc4c(=N)c4c(C)cc(C)nc43)c2n1` :
## Output 0.0

## Input Call for entry `Cc1ccc2c(c1)c(=O)c1c(NCCN(C)C)ccc3nnn2c31` :
## Output 0.0

## Input Call for entry `Cc1ccc(C(=O)N/N=C(\N=N\c2ccc(C(=O)O)cc2)c2ccc(N(CCC#N)CCC#N)cc2C)cc1` :
## Output 0.0

## Input Call for entry CCOC(=O)C(NC(=O)c1ccccc1)(Nc1ccc(S(=O)(=O)Nc2nc(C)cc(C)n2)cc1)C(F)(F)F (stereo not given) :
## Output 0.0

## Input Call for entry CCCCCCCCCCCCCCCCCCOC(COP(=O)(O)OCC1OC(n2cc(F)c(=O)[nH]c2=O)CC1O)COP(=O)(O)OCC1OC(n2ccc(N)nc2=O)C(O)C1O (stereo not given) :
## Output 0.0

## Input Call for entry CCCCCCCCCC[C@@H](O)[C@@H]1CC[C@H]([C@H]2CC[C@@H]([C@@H](O)CCCCCCCCCC[C@H]3CC(CC(C)=O)C(=O)O3)O2)O1 (stereo not given in full) :
## Output 0.0

## Input Call for entry `Cc1c(-c2ccccc2)oc(=O)c2ccccc12` :
## Output 0.0

====

- Test system: A498
- Experiment Summary: NCI tumour cell line growth inhibition, 48 h
Calls of active or inactive are those of the source. Cut-off read from the data, not from the text of the source: active = GI50 up to about 1.1 µM and inactive = higher.
Can you answer with just one of these options? t (active), f (inactive)

N#Cc1c(N)nc(Nc2cccc3ccccc23)c(C#N)c1C#N; f
O=C(Nc1nc2ncn(CCO)c2c(=S)[nH]1)c1ccccc1; f
C=C1C(=O)O[C@@H]2[C@H](O)[C@@H](C)[C@@H]3C=CC(=O)[C@@]3(C)[C@H](OC(=O)C=C(C)C)[C@H]12; f
CN(C)/C=N/S(=O)(=O)c1nn2c(C=O)c(-c3ccc(-c4ccccc4)cc3)nc2s1; f
Nc1nc(=S)n(-c2ccc(Cl)cc2)c2nc3ccccc3cc12; f

## Input Call for entry CCCCCCCCCCCCCCCCCCOC(COP(=O)(O)OCC1OC(n2cc(F)c(=O)[nH]c2=O)CC1O)COP(=O)(O)OCC1OC(n2ccc(N)nc2=O)C(O)C1O (stereo not given) :
## Output t

## Input Call for entry CN1C(=O)N/C(=C\c2ccc(S(=O)(=O)N/N=C\C(O)C(O)C(O)CO)cc2)C1=O (stereo not given) :
## Output f

## Input Call for entry CC(C)NC(C)C(C)c1ccccc1 (stereo not given) :
## Output f

## Input Call for entry CCCC(=O)C(CC)/C(CCC(=O)N(Cc1ccccc1)Cc1ccccc1)=N/NC(=O)C[N+](C)(C)C (stereo not given) :
## Output f

## Input Call for entry `O=C1CCSc2nc(-c3ccc4c(c3)OCO4)nn21` :
## Output f

## Input Call for entry C/C=C/C(C#N)(Cc1ccccc1)OP1(=O)OC(c2ccccc2)C(C)N1C (stereo not given) :
## Output f

====

- System: Hs-578T
- Experiment Summary: NCI tumour cell line growth inhibition, 48 h
Active and inactive are the calls of the source. Rule as the data show it: active = GI50 up to about 1.1 µM and inactive = higher.
Reported Metric: GI50

[O-][N+]1=C2CCC/C(=N/O)C2(O)C2CCCCC21N1CCOCC1 (stereo not drawn); > 100 µM (inactive)
CC(C)(C)c1ccccc1N1C(=O)c2ccc3c4c(ccc(c24)C1=O)N(c1ccccc1C(C)(C)C)C3=O; 3.03 µM (inactive)
CC1(F)C=CC(=O)C=C1; > 100 µM (inactive)
CN(C)C(=S)S [SODIUM DIMETHYLCARBAMODITHIOATE]; > 100 µM (inactive)
Cc1c(-c2ccccc2)oc(=O)c2ccccc12; 17.1 µM (inactive)
O=c1[nH]c(-n2[nH]c3c(c2=O)CCCC3)nc(O)c1-c1ccccc1; > 100 µM (inactive)
CCOC(=O)CCC(NC(=O)OCc1ccccc1)C(=O)NC(CCC(=O)OCC)C(=O)NC(CCC(=O)OCC)C(=O)NNC(=O)OC(C)(C)C (stereo not drawn); > 100 µM (inactive)
O=C(CCc1cccc(O)c1)NCCc1cccc(O)c1; > 100 µM (inactive)

## Input Given the compound `CC(=O)/C(=C\Nc1c(C)n(C)n(C)c1=O)C(=O)c1ccccc1` , what is its reported GI50?
## Output > 50 µM (inactive)

====

- Test system: HCT-15
Reported Metric: GI50 (µM)
All answers are understood in µM, so give the number only.

Answered cases to consult:
Cc1ccc(N2C(=O)C3c4[nH]c5ccccc5c4C4CCC(C(C)(C)C)CC4C3C2=O)cc1 (stereo not given); 34.6
COc1ccc(/C=C2\C(=O)N(C3OC(COC(C)=O)C(OC(C)=O)C(OC(C)=O)C3OC(C)=O)c3ccccc3N=C2N)cc1 (stereo not given); 12.9
O=C(O)C1(Cc2ccccc2)Cc2cc3c(cc2C1)CCC3; 52.6

## Input Given the entry COC(=O)C(Cc1ccccc1)NC(=O)CSc1nnc(COc2ccc(Cl)cc2)n1-c1ccccc1 (stereo not given) , what GI50 was observed with HCT-15?
## Output 35.2

====

- System: OVCAR-5
- Experiment Summary: NCI tumour cell line growth inhibition, 48 h
Active and inactive are the calls of the source. Cut-off read from the data, not from the text of the source: active = GI50 up to about 1.1 µM and inactive = higher.
Can you answer with just one of these options? true for active, false for inactive

Record excerpt, results attached:
Oc1ccc(Oc2cc3c(cc2Oc2ccc(O)cc2)-c2nc-3nc3[nH]c(nc4nc(nc5[nH]c(n2)c2cc(Oc6ccc(O)cc6)c(Oc6ccc(O)cc6)cc52)-c2cc(Oc5ccc(O)cc5)c(Oc5ccc(O)cc5)cc2-4)c2cc(Oc4ccc(O)cc4)c(Oc4ccc(O)cc4)cc32)cc1; false
NC(=O)NC(CC(=O)O)C(=O)O (configuration not stated); false
Clc1ncc(Cl)c(Cl)n1; false

## Input Call for entry `O=C(C#Cc1ccccc1)C1=Cc2ccccc2OC1` :
## Output false

## Input Call for entry `COC(=O)c1c(O)ccc2c1c1c(n2Cc2ccccc2)C(=O)c2ccccc2C1=O` :
## Output false

## Input Call for entry `CCOC(=O)c1c(C)cc(=O)n2c1[nH]c1ccccc12` :
## Output false

## Input Call for entry CC(C(N)=O)N(C)C(=O)c1cnc2ccccc2c1 (configuration not stated) :
## Output false

====

- Test system: Malme-3M
- Experiment Summary: NCI tumour cell line growth inhibition, 48 h
Active and inactive are the calls of the source. No stated cut-off is given here; in the data, active = GI50 up to about 1.1 µM and inactive = higher.
Listing of entries alongside the reported GI50.

Answered cases to consult:
O=C(O)Cc1c(O)ccc2ccccc12; > 100 µM (inactive)
CC(=O)Nc1ccc(C(=O)NN2C(=O)C(Cl)C2c2ccccc2)cc1 (stereo not given); > 100 µM (inactive)
O=C1C(N2CCN(CCOCCO)CC2)=C(Cl)C(=O)c2ncccc21; 8.77 µM (inactive)
COC(=O)C1=C(C(=O)Nc2cccnc2Cl)N(c2ccc(OC)cc2[N+](=O)[O-])C(c2ccc(C)cc2)=CC1c1ccc(OC)cc1OC (stereo not given); 12.6 µM (inactive)
O=C(O)c1ccccc1CC1Cc2cc3c(cc2C1)CCC3; > 100 µM (inactive)

## Input Given the entry O=C(O)/C=C/C=C/c1ccc2c(c1)OCO2 [PIPERIC ACID] , what GI50 was observed with Malme-3M?
## Output > 100 µM (inactive)

## Input Given the entry O=C1CC2CC(CC3(CO3)C2)C1F (stereo not given) , what GI50 was observed with Malme-3M?
## Output > 100 µM (inactive)

## Input Given the entry `Cc1c(C(=O)C/C(=N\O)C(=O)Nc2cc(Cl)c(Cl)cc2Cl)[n+]([O-])c2ccccc2[n+]1[O-]` , what GI50 was observed with Malme-3M?
## Output 9.14 µM (inactive)

## Input Given the entry CC1CCC2(NC1)OC1CC3C4CC=C5CC(OC6OC(CO)C(OC7OC(C)C(O)C(O)C7O)C(O)C6OC6OC(C)C(O)C(O)C6O)CCC5(C)C4CCC3(C)C1C2C (stereo not given) , what GI50 was observed with Malme-3M?
## Output 2.46 µM (inactive)

## Input Given the entry `Cc1ccc2c(=O)c(-c3n[nH]c(=S)s3)c[nH]c2n1` , what GI50 was observed with Malme-3M?
## Output > 100 µM (inactive)
